Biological target: RIPK2 (KD)/XIAP (BIR2) (Homo sapiens, UniProt O43353)
Sequence (O43353 1-310): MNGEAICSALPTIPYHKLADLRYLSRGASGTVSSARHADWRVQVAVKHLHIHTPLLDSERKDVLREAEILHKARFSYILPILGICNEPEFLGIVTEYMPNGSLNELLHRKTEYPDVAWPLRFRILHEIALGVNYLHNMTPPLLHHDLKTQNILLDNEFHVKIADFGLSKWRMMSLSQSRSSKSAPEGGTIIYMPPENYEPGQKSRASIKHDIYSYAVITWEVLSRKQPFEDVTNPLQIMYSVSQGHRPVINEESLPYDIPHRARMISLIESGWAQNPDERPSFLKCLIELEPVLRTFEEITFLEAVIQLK
Test: RIPK2-XIAP binding competition PPI assay (TR-FRET)
Settings: GST-RIPK2 / His-XIAP (BIR2)-avi, 120 min at 23° C.
pIC50: −log10 of the molar value.
recorded endpoint: pIC50

pIC50 for COc1cn2ncc(-c3cc(C(=O)N[C@H](C)c4ccccn4)n(C)n3)c2cc1C1(F)CCN(C)CC1 [Example 58] ?
6.00 to 7.00

Quick one: pIC50 of COc1cc2ncc(-c3cc(NC(=O)Cc4ccccc4Cl)n(C)n3)n2cc1C1(F)CCN(C)CC1 [Example 186] ?
7.00 to 8.00

Consider the molecule shown here: COc1cc2ncc(-n3cc(N(C)C(=O)Cc4ccccc4Cl)cn3)n2cc1S(=O)(=O)C(C)(C)C [Example 173] What is its recorded pIC50?
< 6.00

Request the reported pIC50 associated with CCn1nc(-c2cnc3cc(OC)c(S(=O)(=O)C(C)(C)C)cn23)cc1C(=O)N[C@H](C)c1ncccn1 [Example 96]
> 8.00
